The values you see were collected from PubChem BioAssay (NCI).

system: A498 renal; assay: NCI-60 one-dose screen, 48 h (100 = growth as untreated, 0 = no growth, -100 = all killed); conditions: 10 µM unless noted
The panel holds about 83,000 compounds, 20% with a hit somewhere; the sample as a whole holds those more often.
observation-type: growth (%)

> print(dat)
                                    compound  test.result
 1  Cc1nn(-c2ccccc2)c(Cl)c1/C=C(/NC(=O)c1ccccc1)c1nc2ccccc2[nH]1         88.2
 2  COCCN(C(=O)c1ccc(F)cc1F)c1c(N)n(Cc2ccccc2)c(=O)[nH]c1=O          100
 3  CCCCCCCCn1ccc2cc(NC(=O)Cn3cc(CN4CCCC4)nn3)ccc21         87.2
 4         O=C(/C=C/c1c(Cl)nc2sccn12)c1nccs1         72.2
 5        N/C(=N/N=C/c1ccccc1)N/N=C\c1ccccc1         66.6
 6  COc1ccc(C(=O)COc2ccc(/C=C3\Oc4ccccc4C3=O)cc2)cc1          106
 7               CCCCCc1nc2c(c3c1CCCC3)CCCC2         84.3
 8  COc1cccc(Nc2nccc(Nc3ccc4[nH]ncc4c3)n2)c1         12.7
 9  CC(C)(C)OC(=O)Nc1ccc2c(c1)C(NC(=O)Nc1cccc(C#N)c1)CC(C)(C)O2 (stereo unspecified)         57.5
10  Cc1ccc2[nH]c(=O)c3c(c2c1)OC(N)=C(C#N)C31c2cc(Br)ccc2-c2ccc(Br)cc21         79.7
11                    O=c1ssc(Cl)c1-c1ccccc1          108

----------
system: BT-549 breast; experiment: NCI-60 one-dose screen, 48 h; conditions: 10 µM unless noted
This is part of a sample that, as a whole, favours compounds with a hit. Of some 83,000 tested, about 20% had one in any assay. Calls of active or inactive are those of the source. Rule for the calls: active = growth percent below 10; inactive = the rest.
Possible outcomes: y = active, n = inactive

compound	experimental-target	label-value
O=c1[nH][n+](-c2ccc(Cl)cc2)no1	BT-549 breast	n
N#Cc1c(-c2ccccc2)cc(-c2ccc(Nc3nc(Nc4ccc(F)cc4)nc(Nc4ccc(F)cc4)n3)cc2)nc1N	BT-549 breast	n
CC(C)=C[C@@H]1c2c(c3ccccc3n(C)c2=O)O[C@H]2c3c(c4ccccc4n(C)c3=O)OC(C)(C)[C@@H]12	BT-549 breast	n
COC(=O)[C@]12CC[C@@H](C)[C@H](C)[C@@H]1C1=CC[C@@H]3[C@@]4(C)C(C=O)=C[C@@](C)(CO)[C@@H]4[C@H](O)C[C@@]3(C)[C@]1(C)CC2	BT-549 breast	y
CC(C)CC(NC(=O)CN(Cc1ccccc1)S(C)(=O)=O)C(=O)O (stereo not drawn)	BT-549 breast	n
COc1nc2c(c(=O)n1C)CN(c1ccccc1)C(=O)CN2C	BT-549 breast	n
Nc1n[nH]c2cc(F)c([C@@H]3Nc4c(F)cc5[nH]ncc5c4[C@H]4C5CCC(C5)[C@@H]34)cc12 (stereo partly drawn)	BT-549 breast	y
CNS(=O)(=O)c1n[nH]nc1-c1cc(C(C)(C)C)c(O)c(C(C)(C)C)c1	BT-549 breast	n
CC/C=C\CCC/C=C1/C(=O)C=C[C@@H]1C/C=C\CCCC(=O)O	BT-549 breast	n
COc1cc(OC)cc(C2CC(=O)Nc3c2c(C)nn3-c2nc3ccccc3[nH]2)c1 (stereo not drawn)	BT-549 breast	n
COc1cc(N=Nc2ccc(N)cc2)c(OC)cc1N=Nc1ccccc1.[Cl][Zn][Cl]	BT-549 breast	n
O=C1c2cccc(NCCN=Cc3cc([N+](=O)[O-])ccc3O)c2C(=O)c2c(NCCN=Cc3cc([N+](=O)[O-])ccc3O)cccc21	BT-549 breast	n
NCCCNc1nc2ccccc2c2c(=O)c3cccc(Cl)c3sc12	BT-549 breast	n
COc1ccc(Nc2nnc(SCc3ccccc3F)s2)cc1	BT-549 breast	n
COc1ccc(C(=O)COc2ccc(/C=C3\Oc4ccccc4C3=O)cc2)cc1	BT-549 breast	n
COc1ccc(C(=O)Nn2c(NCC(=O)N3c4ccccc4Sc4ccccc43)nnc2-c2ccc(O)cc2)cc1	BT-549 breast	n
CC1OC(O[C@H]2/C=C/C=C/C=C/C=C/C=C/C=C/C=C/[C@H](C)[C@@H](O)[C@@H](C)[C@H](C)OC(=O)CC(O)CC(O)CCC(O)C(O)CC(O)C[C@]3(O)C[C@H](O)C(C(=O)O)C(C2)O3)C(O)[C@H](N)C1O (stereo partly drawn)	BT-549 breast	n
N=C1C(c2nc(-c3ccc(Br)cc3)cs2)=C(O)CN1Cc1cccnc1	BT-549 breast	n
CCCCC1CCCCN1C(=O)OCC (stereo not drawn)	BT-549 breast	n
COc1cccc(C(=O)NCCNc2cc(-c3cn(-c4ccccc4)nc3-c3cccc(OC)c3)ccn2)c1	BT-549 breast	n
Cc1occc1-c1n[nH]c(=S)n1N1C(=O)CSC1=S	BT-549 breast	n
COc1cc(/C=C2\C(=O)ON=C2C)cc(OC)c1OC	BT-549 breast	n
Cc1ccc(N2CCN(C(=S)c3cccs3)CC2)cc1	BT-549 breast	n
COc1ccc(-c2nc(SCCC(C)C)nc(N/N=C\c3cccc([N+](=O)[O-])c3)c2C#N)cc1	BT-549 breast	n
Cc1ccc2nc(NC(=O)CSc3nc(-c4ccccc4)c(C#N)c(=O)n3Cc3ccccc3)sc2c1	BT-549 breast	n
COc1cccc(-c2nn(-c3ccccc3)cc2-c2ccnc(NCCNC(=O)Nc3cccc(C(F)(F)F)c3)c2)c1	BT-549 breast	n
COc1cc(N=Nc2cc(Cc3ccc(N(C)C)cc3)c(N)cc2N(C)C)c2ncccc2c1	BT-549 breast	n
O=c1c2cc(F)ccc2sc2c(NCCN3CCCCC3)nc3ccccc3c12	BT-549 breast	n
Cc1ccc(Nc2nc(N)nc(CSCC(=O)NN)n2)cc1	BT-549 breast	n
c1ccc(-c2nc([P+](c3ccccc3)(c3ccccc3)c3ccccc3)c(N3CCOCC3)o2)cc1	BT-549 breast	y
CC(CN1CCCCC1)C(=O)c1ccccc1 (stereo not drawn)	BT-549 breast	n
Cc1cccc(-c2nc(N(C)c3ccc4ncsc4c3)c3ccccc3n2)n1	BT-549 breast	n
O=C(c1ccccc1)c1c(/C=C/c2ccccc2)nc2ccccc2c1/C=C/c1ccc(Br)cc1	BT-549 breast	n
CC1=NOC(=O)/C1=C\c1ccc(O)cc1	BT-549 breast	n
COc1cc(C2CC(c3ccc(Nc4ccnc5cc(Cl)ccc45)cc3)=NN2C=O)cc(OC)c1OC (stereo not drawn)	BT-549 breast	n
O=C1CCC2=C3C4CCCCC4C(=O)C4CCCC(OC2C1)C34 (stereo not drawn)	BT-549 breast	y
O=C(CSc1nnc(-c2ccc(NC(=O)c3cccnc3)cc2)o1)Nc1cccc(Br)c1	BT-549 breast	n
O=C1Nc2ccc(F)cc2C12Nc1cc(Cl)ccc1S2 (stereo not drawn)	BT-549 breast	n

----------
system: HOP-92 NSCLC; assay: NCI-60 one-dose screen, 48 h; settings: 10 µM unless noted
About 83,000 compounds went through this panel and 20% of them were active in at least one assay; those are over-represented in the sample as a whole. Calls of active or inactive are those of the source. The calls were made as follows: active = growth percent below 10; inactive = the rest.
Possible outcomes: active, inactive

compound	experimental-target	label-value
O=C(COc1ccc(/C=C2\Oc3ccccc3C2=O)cc1)c1ccc(Cl)cc1	HOP-92 NSCLC	inactive
CCCCOc1nc2ccccc2cc1C1CNC(=O)c2ccccc2N1 (stereo not drawn)	HOP-92 NSCLC	inactive
C[C@@]1(CCC#N)[C@H]2CC[C@@H]3[C@H]4[C@H](C(=O)/C=C/c5cccnc5)CC[C@]4(C#N)CC[C@@]3(C)[C@]2(C)CC[C@H]1C(=O)/C=C/c1cccnc1	HOP-92 NSCLC	inactive
O=C(Nc1ccc(-n2cc(-c3ccncc3)c(-c3ccc(Cl)c(O)c3)n2)cc1)N1CCOCC1	HOP-92 NSCLC	inactive
COc1cc(N=Nc2ccc(N)cc2)c(OC)cc1N=Nc1ccccc1.[Cl][Zn][Cl]	HOP-92 NSCLC	inactive
COc1ccc(/C=N/C2=C(C#N)C(c3ccc(OC)cc3)c3ccc4ccccc4c3O2)cc1 (stereo not drawn)	HOP-92 NSCLC	inactive
c1ccc(Nc2nc(-c3ccccn3)cs2)nc1	HOP-92 NSCLC	inactive
COC(=O)[C@]12CC[C@@H](C)[C@H](C)[C@@H]1C1=CC[C@@H]3[C@@]4(C)C(C=O)=C[C@@](C)(COS(C)(=O)=O)C4[C@H](O)C[C@@]3(C)[C@]1(C)CC2 (stereo partly drawn)	HOP-92 NSCLC	active

----------
test system: CAKI-1 renal; assay: NCI-60 one-dose screen, 48 h (100 = growth as untreated, 0 = no growth, -100 = all killed); settings: 10 µM unless noted
This is part of a sample that, as a whole, favours compounds with a hit. Of some 83,000 tested, about 20% had one in any assay.
// label = true if growth is not less than 80%, otherwise false

compound	label-value
N#CCN1C(=O)C2C3=C(CCCC3)SC2N=C1CN1CCCC1 (stereo unspecified)	true
CCCCCCCC/C=C\CCCCCCCCOc1ccccc1CC(=O)NCC[N+](C)(C)C	false
Cc1ccc(N2CCN(C(=S)c3cccs3)CC2)cc1	true
O=Cc1c[nH]c2ccc(-c3csc4ccccc34)cc12	false
CN1C(=O)N(C)C2C1NN=c1s/c(=C\c3ccccc3)c(=O)n12 (stereo unspecified)	false
Cn1c(=O)c2[nH]c(NN)nc2n(C)c1=O	true
COc1cc(/C=N/n2c(CN3CCOCC3)nc3ccccc3c2=O)cc(OC)c1OC	true
N#Cc1c(-c2cccc(Cl)c2)cc(-c2cccc(F)c2)[nH]c1=O	true
Cn1c(-c2c(N)n(Cc3cccnc3)c3nc(C#N)c(C#N)nc23)nc2ccccc21	true
Cc1cc(O)c(C2=NN(c3ccc(S(N)(=O)=O)cc3)C(c3ccccc3Cl)C2)cc1Cl (stereo unspecified)	false
CCCCOc1nc2ccccc2cc1C1CNC(=O)c2ccccc2N1 (stereo unspecified)	false
COc1cc(N=Nc2ccc(N)cc2)c(OC)cc1N=Nc1ccccc1.[Cl][Zn][Cl]	false
CCOC(=O)C/C(C)=N\NC(=O)c1ccncc1	false
CN(C)CCC=C1c2ccccc2C(C)(C)c2ccccc21	true
COc1ccc(-c2nc(SCCC(C)C)nc(N/N=C\c3cccc(Cl)c3)c2C#N)cc1	false
COC(=O)[C@]12CC[C@@H](C)[C@H](C)[C@@H]1C1=CC[C@@H]3[C@@]4(C)C(C=O)=C[C@@](C)(COC(C)=O)[C@@H]4[C@H](O)C[C@@]3(C)[C@]1(C)CC2	false
COc1ccc(-c2cc(-c3cc(OC)c(OC)c(OC)c3)c(C#N)c(N3CCOCC3)n2)cc1O	false
O=C(O)c1ccc2c(c1Cl)C(=O)c1ccccc1C2=O	true
CCCCCCCOc1c(OC)cc(C2CC(=O)Nc3c2c(C)nn3-c2nc3ccccc3[nH]2)cc1OC (stereo unspecified)	false
